Molecular target: Tau K18 aggregates (Tau K18 fragment, amino acids 244 to 372 of human Tau441) (Homo sapiens)
Construct: encompassing amino acids 244 to 372 of the longest isoform (2N4R) of human Tau441
Sequence (P10636 561-689): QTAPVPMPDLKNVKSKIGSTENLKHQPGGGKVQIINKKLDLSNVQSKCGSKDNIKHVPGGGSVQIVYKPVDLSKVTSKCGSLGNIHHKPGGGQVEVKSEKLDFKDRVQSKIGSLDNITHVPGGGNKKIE
Test: Tau K18 disaggregation assay by ThT
Details: 2 μM K18 aggregates, 160 to 0.04 μM compound, 30 min RT, ThT fluorescence
Procedure: Tau K18 Disaggregation Assay by ThT The Tau K18 fragment, encompassing amino acids 244 to 372 of the longest isoform (2N4R) of human Tau441, was expressed in bacteria and purified or bought from SignalChem. […] Fluorescence (relative fluorescence units; RFU) was measured in monoplicate or duplicate on a Tecan reader (excitation: 440 nm; emission: 485 nm). […]
pEC50: −log10 of the molar value.
Reported pEC50 values for a set of molecules

I have this molecule here, c1ccc2c3c([nH]c2c1)CCN(c1ccc2oc(N4CCOCC4)nc2n1)C3 , and I need its recorded pEC50.
> 5.00

I have this molecule here, Fc1cccc2c3c([nH]c12)CCN(c1ccc2oc(N4CCOCC4)nc2c1)C3 , and I need its recorded pEC50.
> 5.00

I have this molecule here, Fc1ccc2c3c([nH]c2c1)CCN(c1ccc2oc(N4CCOCC4)nc2c1)C3 , and I need its recorded pEC50.
> 5.00

* * *

test: CSF/Plasma ratio determination, in-vivo pharmacokinetics mouse p.o.; set-up: species or system CD-1 male mice; details: male, CD-1, po, 20 mg/kg, AUC0-last(CSF)/AUC0-last(plasma)
measured.parameter: CSF/plasma AUC ratio

Use the examples below as a reference point.
| compound | readout.number |
| --- | --- |
| Fc1ccc2[nH]c3c(c2c1)CN(c1ccc2oc(N4CCOCC4)nc2c1)CC3 [Comparative Example 1] | 0.007 |
| Fc1ccc2c3c([nH]c2c1)CCN(c1ccc2oc(N4CCOCC4)nc2c1)C3 [Comparative Example 2] | 0.003 |

P. Fc1cccc2c3c([nH]c12)CCN(c1ccc2oc(N4CCOCC4)nc2c1)C3 [Comparative Example 4]
Q. c1ccc2c3c([nH]c2c1)CCN(c1ccc2oc(N4CCOCC4)nc2c1)C3 [Example 1]
Of P and Q , whose reported CSF/plasma AUC ratio is the larger number? Field: selected label. Fill in the label of the entry you choose.
Q

* * *

assay: CSF/Plasma ratio determination, in-vivo pharmacokinetics mouse p.o.; parameters: species or system CD-1 male mice; conditions: 20 mg/kg, CSF
measured.parameter: CSF AUC0-last (ng·h/mL)

| compound.structure | units.of.measure | readout.number |
| --- | --- | --- |
| Fc1ccc2[nH]c3c(c2c1)CN(c1ccc2oc(N4CCOCC4)nc2c1)CC3 | ng·h/mL | 121.03 |

P. Fc1ccc2c3c([nH]c2c1)CCN(c1ccc2oc(N4CCOCC4)nc2c1)C3
Q. c1ccc2c3c([nH]c2c1)CCN(c1ccc2oc(N4CCOCC4)nc2c1)C3
Min CSF AUC0-last? P | Q Field: selected label. Fill in the label of the entry you choose.
P

* * *

assay: CSF/Plasma ratio determination, in-vivo pharmacokinetics mouse p.o.; parameters: species or system CD-1 male mice; settings: male, CD-1, po, 20 mg/kg, plasma, read-out: Plasma AUC0-last
measured.parameter: AUC(0-t) (ng·h/mL)

Use the examples below as a reference point.
| compound.structure | units.of.measure | AUC(0-t) |
| --- | --- | --- |
| Fc1ccc2c3c([nH]c2c1)CCN(c1ccc2oc(N4CCOCC4)nc2c1)C3 | ng·h/mL | 17800 |
| Fc1ccc2[nH]c3c(c2c1)CN(c1ccc2oc(N4CCOCC4)nc2c1)CC3 | ng·h/mL | 17400 |

P. c1ccc2c3c([nH]c2c1)CCN(c1ccc2oc(N4CCOCC4)nc2c1)C3
Q. Fc1cccc2c3c([nH]c12)CCN(c1ccc2oc(N4CCOCC4)nc2c1)C3
Of P and Q , whose reported AUC(0-t) is the larger number? Field: selected label. Fill in the label of the entry you choose.
P
(P: 23700 ng·h/mL, Q: 14500 ng·h/mL)
